assay metric: melting point

• Cc1nccn1CC1CCCN(C(=O)C2CN(C3c4ccc(Cl)cc4CCc4cccnc43)CCN2C(=O)OC(C)C)C1 (single isomer, unassigned) [Example 40] = 107 to 112 °C
• Cc1nccn1CC1CCCN(C(=O)C2CN(C3c4ccc(Cl)cc4CCc4cccnc43)CCN2C(=O)OC(C)C)C1 (single isomer, unassigned) [Example 41] = 95 to 100 °C
• Cc1nccn1CC1CCCN(C(=O)C2CN(C3c4ccc(Cl)cc4CCc4cccnc43)CCN2C(=O)OC(C)C)C1 (single isomer, unassigned) [Example 38] = 92 to 101 °C
• Cc1cn(CC2CCCN(C(=O)C3CN(C4c5ccc(Cl)cc5CCc5cccnc54)CCN3C(=O)OC3CCCCC3)C2)cn1 (stereo not drawn) [47(A)] = 122 to 127 °C
• Cc1cn(CC2CCCN(C(=O)C3CN(C4c5ccccc5CCc5cc(Cl)cnc54)CCN3C(=O)OC(C)(C)C)C2)cn1 (stereo not drawn) [Example 292] = 95 to 105 °C
• CC(C)(C)OC(=O)N1CCN([C@H]2c3ccc(Cl)cc3CCc3cc(Br)cnc32)C[C@@H]1C(=O)N1CCC[C@H](Cn2ccnc2)C1 = 122 to 127 °C
• Cc1cn(C[C@H]2CCCN(C(=O)[C@H]3CN([C@H]4c5ccc(Cl)cc5CCc5cc(F)cnc54)CCN3C(=O)OC(C)(C)C)C2)cn1 = 115 to 118 °C
• CC(C)OC(=O)N1CCN(C2c3ccc(Cl)cc3CCc3cccnc32)CC1C(=O)N1CCCC(Oc2cccnc2)C1 (stereo not drawn) = 104 to 108 °C
• Cc1cn(C[C@@H]2CCCN(C(=O)[C@H]3CN([C@H]4c5ccccc5CCc5cc(Br)cnc54)CCN3C(=O)OC(C)(C)C)C2)cn1 = 109 to 124 °C
